Each recorded value in this set is attributed to PubChem BioAssay (NCI).

# Tested on: COLO 205 colon
# procedure_text: NCI-60 one-dose screen, 48 h
# condition_info: 10 µM unless noted
This is part of a sample that, as a whole, favours compounds with a hit. Of some 83,000 tested, about 20% had one in any assay. Active and inactive are the calls of the source. The calls were made as follows: active = growth percent below 10; inactive = the rest.
Labels: yes (1) for active, no (0) for inactive

INSERT INTO measurements (compound, class) VALUES
  ('C=CCSSC1N=CNc2nc[nH]c21 (stereo not given)', 'no (0)'),
  ('O=S(=O)(Nc1ccc(NS(=O)(=O)c2ccccc2)c(Cl)c1)c1ccccc1', 'no (0)'),
  ('CCC([N+](=O)[O-])S(=O)(=O)c1ccc(C)cc1 (stereo not given)', 'no (0)'),
  ('O=C(Nc1ccccc1Cl)c1ccc(NC2=C(Cl)C(=O)N(C3CCCCC3)C2=O)cc1', 'no (0)'),
  ('CN1CCN(c2nc(NCCCNc3ccnc4cc(Cl)ccc34)c3ccccc3n2)CC1', 'yes (1)');
